Read-out: ABC Transporter (ABCB11), ABCB11 (gene 8647)
Experiment: LTEA_HepaRG_ABCB11: Life Technologies and Expression Analysis (LTEA) Assay for ABC Transporter (ABCB11) using HepaRG (AID 2283463)
Details: mRNA level, 48 h; actives raise or lower the signal
Calls of active or inactive are those of the source. The calls were made as follows: active = hit-call score of the fitted dose curve at least 0.9, where 1 is the maximum; inactive = score below 0.9.
property measured: AC50

For CC1=NNC(=O)N(/N=C/c2cccnc2)C1 the compound record lists AC50 as inactive

The recorded AC50 for entry CCc1cnc(C2=NC(C)(C(C)C)C(=O)N2)c(C(=O)O)c1 (stereo not given) equals inactive

AC50 reading for CC(C)[C@H](C(=O)O[C@H](C#N)c1cccc(Oc2ccccc2)c1)c1ccc(Cl)cc1 : inactive

AC50 in this record for CNc1cnn(-c2cccc(C(F)(F)F)c2)c(=O)c1Cl : 20.1 µM (active)

Looking up CCOC(=O)CC(SP(=O)(OC)OC)C(=O)OCC (stereo not given) , I see its AC50 listed as 22.7 µM (active)

Value sought for every listed compound: AC50.
1. FC(F)C(F)(F)OCC(Cn1cncn1)c1ccc(Cl)cc1Cl (stereo not given)
2. Nc1nc(N)nc(NC2CC2)n1

Response:
1. 36.6 µM (active)
2. inactive

Hi! Can you tell me AC50 for each of these compounds?
1. COP(=O)(OC)C(O)C(Cl)(Cl)Cl (stereo not given)
2. Cc1ccn2nc(S(=O)(=O)Nc3c(F)cccc3F)nc2n1
3. CCC(=O)Nc1ccc(Cl)c(Cl)c1
4. CC(=NC#N)N(C)Cc1ccc(Cl)nc1
5. N#CSCSC#N
6. CCOP(=S)(Oc1cnc(C(C)(C)C)nc1)OC(C)C (stereo not given)
7. CN1COCN(Cc2cnc(Cl)s2)C1=N[N+](=O)[O-]
8. CCOC(=O)COc1cc(-c2nn(C)c(OC(F)F)c2Cl)c(F)cc1Cl

Response:
inactive
inactive
inactive
inactive
50 µM (active)
1.84 µM (active)
inactive
inactive

Give measured AC50 for every item shown.
1. CCCSP(=O)(OCC)SCCC
2. CN(C)C(=O)Nc1cccc(C(F)(F)F)c1

Response:
1. inactive
2. inactive

I have 3 compounds here; please give me AC50 for each one.
1. CSc1nc(NC(C)C)nc(NC(C)C)n1
2. CN(C)NC(=O)CCC(=O)O
3. CCC(=NOC/C=C/Cl)C1=C(O)CC(C2CCOCC2)CC1=O (stereo not given)

Response:
56.7 µM (active)
inactive
inactive

---

Read-out: Cytochrome P450 (CYP1A1), CYP1A1 (gene 1543)
Experiment: LTEA_HepaRG_CYP1A1: Life Technologies and Expression Analysis (LTEA) Assay for Cytochrome P450 (CYP1A1) using HepaRG (AID 2283454)
Details: mRNA level, 48 h; actives raise or lower the signal
Activity calls are given as the source filed them. How the source made its calls: active means hit-call score of the fitted dose curve at least 0.9, where 1 is the maximum; inactive means score below 0.9.
A correct response names exactly one class from true (1) (active), false (0) (inactive)

Request: Hi, do you know how C=C(C)[C@H]1Cc2c(ccc3c2O[C@@H]2COc4cc(OC)c(OC)cc4[C@@H]2C3=O)O1 came out in this test?
Response: true (1)

Request: For this molecule, state the assay outcome: CCOC(=O)CC(SP(=O)(OC)OC)C(=O)OCC (configuration not stated)
Response: true (1)

Request: GET /call?item= CN1COCN(Cc2cnc(Cl)s2)C1=N[N+](=O)[O-] returns the recorded outcome of this test.
Response: false (0)

Request: Call for entry CCCCOC(=O)c1ccccc1C(=O)O :
Response: true (1)

Request: Can you look up the reported call for CCOP(=S)(OCC)Oc1cc(C)nc(C(C)C)n1 for me?
Response: true (1)

New cases:
Request: Could you kindly confirm the outcome this assay logged for CN(C)NC(=O)CCC(=O)O ?
Response: false (0)

Request: Returns: the outcome recorded for CC1=NNC(=O)N(/N=C/c2cccnc2)C1 in this assay.
Response: true (1)

Request: Hi, sorry to bother you, what did the test record for CCOP(=O)(OCC)Oc1cc(C)nc(C(C)C)n1 ?
Response: true (1)

Request: Which outcome did this test record for the molecule Cc1nn(-c2cc(NS(C)(=O)=O)c(Cl)cc2Cl)c(=O)n1C(F)F ?
Response: true (1)
